# targetOrTestSystem: TBK1 (Homo sapiens (Human))
# procedureText: TBK1 low ATP kinase assay (in vitro assay 1)
# Format: biochemical
# settings: in vitro assay 1, read-out: TBK1 low ATP kinase assay IC50
quantityMeasured: pIC50
Scale for pIC50: -log10 of concentration given in mol/L; no unit attached.

Given the entry CC(c1ccnc(Nc2nc3ccc(-c4cnn(CC5CC5(F)F)c4)cc3[nH]2)c1)N1CCN(C(=O)CC(F)(F)F)CC1 (single isomer, unassigned) [Example 55.02.02] , what pIC50 was observed with TBK1 (Homo sapiens (Human))? 8.89

Given the entry COc1c(NCC2CC2)ncnc1-c1ccc2nc(Nc3cc(C(C)N4CCN(C(=O)C5CC5)CC4)ccn3)[nH]c2c1 (single isomer, unassigned) [Example 109.02.02] , what pIC50 was observed with TBK1 (Homo sapiens (Human))? 8.70

Given the entry COc1c(NCC2CC2)ncnc1-c1ccc2nc(Nc3cc(CN4CCN(C(=O)C5CC5)CC4)ccn3)[nH]c2c1 [Example 109.01.03] , what pIC50 was observed with TBK1 (Homo sapiens (Human))? 8.06

Given the entry CC(c1ccnc(Nc2nc3ccc(-c4ccncn4)cc3[nH]2)c1)N1CCN(C(=O)C2CC2)CC1 (single isomer, unassigned) [Example 23.05.01.A] , what pIC50 was observed with TBK1 (Homo sapiens (Human))? 8.69

Given the entry Cc1cc(-c2ccc3nc(Nc4cc(C(C)N5CCN(C(=O)C6CC6)CC5)ccn4)[nH]c3c2F)ncn1 (single isomer, unassigned) [Example 172.03] , what pIC50 was observed with TBK1 (Homo sapiens (Human))? 7.82

---

# targetOrTestSystem: TBK1 (Homo sapiens (Human), UniProt Q9UHD2)
# Sequence (Q9UHD2 whole entry): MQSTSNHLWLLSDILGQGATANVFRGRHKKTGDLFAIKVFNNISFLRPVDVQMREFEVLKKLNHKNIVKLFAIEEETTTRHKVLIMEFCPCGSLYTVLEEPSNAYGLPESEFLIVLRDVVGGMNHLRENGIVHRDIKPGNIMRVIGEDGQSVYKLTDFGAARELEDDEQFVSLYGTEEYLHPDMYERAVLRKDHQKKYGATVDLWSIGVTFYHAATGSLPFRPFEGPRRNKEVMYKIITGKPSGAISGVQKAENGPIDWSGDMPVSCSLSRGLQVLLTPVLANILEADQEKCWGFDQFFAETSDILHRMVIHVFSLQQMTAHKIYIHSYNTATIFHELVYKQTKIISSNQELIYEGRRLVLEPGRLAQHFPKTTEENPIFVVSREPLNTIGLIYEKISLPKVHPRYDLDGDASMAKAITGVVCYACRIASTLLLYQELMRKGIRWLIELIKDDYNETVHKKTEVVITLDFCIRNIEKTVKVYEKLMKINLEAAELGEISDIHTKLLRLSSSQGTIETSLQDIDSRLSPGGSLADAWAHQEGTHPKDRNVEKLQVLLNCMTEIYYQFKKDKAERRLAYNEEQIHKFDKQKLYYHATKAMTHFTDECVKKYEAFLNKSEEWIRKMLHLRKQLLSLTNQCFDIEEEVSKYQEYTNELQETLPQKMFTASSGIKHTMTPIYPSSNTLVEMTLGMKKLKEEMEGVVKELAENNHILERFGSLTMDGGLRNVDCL
# procedureText: TBK1 low ATP kinase assay (in vitro assay 1)
# Assay type: biochemical
# settings: in vitro assay 1, read-out: TBK1 low ATP kinase assay IC50
quantityMeasured: pIC50
Scale for pIC50: -log10 of concentration given in mol/L; no unit attached.

Given the entry CC(c1ccnc(Nc2nc3ccc(-c4ccncn4)cc3[nH]2)c1)N1CCN(C(=O)C2CCC2)CC1 (single isomer, unassigned) [Example 23.05.03.B] , what pIC50 was observed with TBK1 (Homo sapiens (Human), UniProt Q9UHD2)? 7.84

Given the entry `Cc1noc(-c2ccc3nc(Nc4cc(CN5CCN(c6ccccc6)CC5)ccn4)[nH]c3c2)n1` , what pIC50 was observed with TBK1 (Homo sapiens (Human), UniProt Q9UHD2)? 5.52

Given the entry CC(c1ccnc(Nc2nc3ccc(-c4cnn(CC5(C)CC5)c4)cc3[nH]2)c1)N1CCN(C(=O)OC(C)(C)C)CC1 (single isomer, unassigned) , what pIC50 was observed with TBK1 (Homo sapiens (Human), UniProt Q9UHD2)? 7.59

Given the entry `COc1cc(-c2ccc3nc(Nc4cc(CN5CCN(C(=O)OC(C)(C)C)CC5)ccn4)[nH]c3c2)ncn1` , what pIC50 was observed with TBK1 (Homo sapiens (Human), UniProt Q9UHD2)? 7.30

Given the entry `O=C(C1CC1)N1CCN(Cc2ccnc(Nc3nc4ccc(-c5cc(N6CCCCC6)ncn5)cc4[nH]3)c2)CC1` , what pIC50 was observed with TBK1 (Homo sapiens (Human), UniProt Q9UHD2)? 8.68

Given the entry `COc1cc(-c2ccc3nc(Nc4cc(CN5CCN(C(=O)CC6CC6)CC5)ccn4)[nH]c3c2)ccn1` , what pIC50 was observed with TBK1 (Homo sapiens (Human), UniProt Q9UHD2)? 7.30

Given the entry `Cc1noc(-c2ccc3nc(Nc4cc(CN5C[C@@H](C)N(C(=O)OC(C)(C)C)C[C@@H]5C)ccn4)[nH]c3c2)n1` , what pIC50 was observed with TBK1 (Homo sapiens (Human), UniProt Q9UHD2)? 5.65

Given the entry CC(c1ccnc(Nc2nc3ccc(-c4cnn(CC5(Cl)CC5)c4)cc3[nH]2)c1)N1CCN(C(=O)OC(C)(C)C)CC1 (single isomer, unassigned) , what pIC50 was observed with TBK1 (Homo sapiens (Human), UniProt Q9UHD2)? 7.92

Given the entry `Cc1nccc(-c2ccc3nc(Nc4cc(CN5CCN(C(=O)C6CC6)CC5)cc(C(F)(F)F)n4)[nH]c3c2)n1` , what pIC50 was observed with TBK1 (Homo sapiens (Human), UniProt Q9UHD2)? 6.32

Given the entry `COc1cncnc1-c1ccc2nc(Nc3cc(CN4CCN(S(=O)(=O)C5CC5)CC4)ccn3)[nH]c2c1` , what pIC50 was observed with TBK1 (Homo sapiens (Human), UniProt Q9UHD2)? 7.49

Given the entry CC(c1ccnc(Nc2nc3ccc(-c4cc(C(F)(F)F)ncn4)c(F)c3[nH]2)c1)N1CCN(C(=O)C2CC2)CC1 (single isomer, unassigned) , what pIC50 was observed with TBK1 (Homo sapiens (Human), UniProt Q9UHD2)? 7.30

Given the entry `Cc1c(-c2ccc3nc(Nc4cc(CN5CCN(C(=O)CC(F)(F)F)CC5)ccn4)[nH]c3c2)ncnc1C(F)(F)F` , what pIC50 was observed with TBK1 (Homo sapiens (Human), UniProt Q9UHD2)? 5.68

Given the entry CC(c1ccnc(Nc2nc3ccc(-c4cnn(CC5CCC5)c4)cc3[nH]2)c1)N1CCN(C(=O)OC(C)(C)C)CC1 (single isomer, unassigned) , what pIC50 was observed with TBK1 (Homo sapiens (Human), UniProt Q9UHD2)? 7.85

---

Would you mind telling me the reported IC50 of each entry?
# targetOrTestSystem: TBK1 (Homo sapiens (Human))
# procedureText: TBK1 low ATP kinase assay (in vitro assay 1)
# Format: biochemical
# settings: in vitro assay 1, read-out: TBK1 low ATP kinase assay IC50
Respond with the bare value in nM.

Recorded IC50 of O=C(CC(F)(F)F)N1CCN(Cc2ccnc(Nc3nc4ccc(-c5ncccn5)cc4[nH]3)c2)CC1 [Example 180.02] , please. 556

Recorded IC50 of COCc1cc(-c2ccc3nc(Nc4cc(CN5CCN(C(=O)CC(F)(F)F)CC5)ccn4)[nH]c3c2)ncn1 [Example 79.01] , please. 8.3

Recorded IC50 of O=C(CC1CC1)N1CCN(Cc2ccnc(Nc3nc4ccc(-c5ccnc(C(F)(F)F)n5)cc4[nH]3)c2)CC1 [Example 27.03] , please. 203

Recorded IC50 of Cc1noc(-c2ccc3nc(Nc4cc(CN5CCN(c6cccc(F)c6)CC5)ccn4)[nH]c3c2)n1 [Example 101.09] , please. 460

Recorded IC50 of CCn1cc(-c2ccc3nc(Nc4cc(CN5CCN(C(=O)CC(F)(F)F)CC5)ccn4)[nH]c3c2)cn1 [Example 38.02] , please. 50.4

Recorded IC50 of COCC1CCN(S(=O)(=O)N2CCN(Cc3ccnc(Nc4nc5ccc(-c6ncncc6OC)cc5[nH]4)c3)CC2)CC1 [Example 35.01.16] , please. 45.9

Recorded IC50 of O=C(CC(F)(F)F)N1CCN(Cc2ccnc(Nc3nc4ccc(-c5nc(C6CC6)no5)cc4[nH]3)c2)CC1 [Example 17.02] , please. 64.9

Recorded IC50 of CC(C)Oc1cnccc1-c1ccc2nc(Nc3cc(CN4CCN(C(=O)C5CC5)CC4)ccn3)[nH]c2c1 [Example 06.02] , please. 7.12

Recorded IC50 of COc1cc(-c2ccc3nc(Nc4cc(CN5CCN(C(=O)CC(F)(F)F)CC5)ccn4)[nH]c3c2)ncn1 [Example 163.02] , please. 19

Recorded IC50 of Cc1cc(-c2ccc3nc(Nc4cc(C(C)N5CCN(C(=O)C6CCC6)CC5)ccn4)[nH]c3c2)ncn1 (single isomer, unassigned) [Example 30.03.02.B] , please. 27.5

Recorded IC50 of Cc1nccc(-c2ccc3nc(Nc4cc(CN5CCN(C(=O)C6CC6)CC5)ccn4)[nH]c3c2)c1Cl [Example 130.03] , please. 250

Recorded IC50 of CC(c1ccnc(Nc2nc3ccc(-c4cc(C(F)(F)F)ncn4)c(F)c3[nH]2)c1)N1CCN(C(=O)CC(F)(F)F)CC1 (single isomer, unassigned) [Example 173.02] , please. 77.1

Recorded IC50 of CSc1ncc(-c2ccc3nc(Nc4cc(CN5CCN(C(=O)CC6CC6)CC5)ccn4)[nH]c3c2)cn1 [Example 45.05.02] , please. 1020

Recorded IC50 of CC(c1ccnc(Nc2nc3ccc(-c4cnn(CC5CC5(F)F)c4)c(F)c3[nH]2)c1)N1CCN(C(=O)C2CC2)CC1 (single isomer, unassigned) [Example 86.03] , please. 1.5

---

# targetOrTestSystem: TBK1 (Homo sapiens (Human), UniProt Q9UHD2)
# procedureText: TBK1 low ATP kinase assay (in vitro assay 1)
# Format: biochemical
# settings: in vitro assay 1, read-out: TBK1 low ATP kinase assay IC50
pIC50: −log10 of the molar value.
Classification field: t = pIC50 at or over 7; f = pIC50 under 7.

Record `COc1cncnc1-c1ccc2nc(Nc3cc(CN4CCN(S(=O)(=O)N(C)C)CC4)ccn3)[nH]c2c1` ; criterion: pIC50 no lower than 7. Met? t

Record `CC(C)(O)c1cc(-c2ccc3nc(Nc4cc(CN5CCN(C(=O)CC(F)(F)F)CC5)ccn4)[nH]c3c2)ncn1` ; criterion: pIC50 no lower than 7. Met? t

Record `Cc1noc(-c2ccc3nc(Nc4cc(CN5CCN(c6ccncc6)CC5)ccn4)[nH]c3c2)n1` ; criterion: pIC50 no lower than 7. Met? f

Record `COc1nc(Cl)cc(-c2ccc3nc(Nc4cc(CN5CCN(C(=O)OC(C)(C)C)CC5)ccn4)[nH]c3c2)n1` ; criterion: pIC50 no lower than 7. Met? f

Record `Cc1noc(-c2ccc3nc(Nc4cc(CN5CCN(C(=O)C6CC6)C[C@H]5C)ccn4)[nH]c3c2)n1` ; criterion: pIC50 no lower than 7. Met? t
